Target: MARK3 (human)
Assay: radiometric filter-binding kinase assay
Conditions: compound 10.0 µM
Quick reference: residual activity of the listed items.
Provide only the numeric value, understood in %.

IN: Can you look up the measured residual activity of `CC(C)(C#N)c1ccc(N2C(=O)OCc3cnc4ccc(-c5cnc6ccccc6c5)cc4c32)cc1` for me?
OUT: 102

IN: Can you look up the measured residual activity of `O=C(NOC[C@H](O)CO)c1ccc(F)c(F)c1Nc1ccc(I)cc1Cl` for me?
OUT: 74

IN: Can you look up the measured residual activity of `C=CC(=O)N1CCC[C@@H](n2nc(-c3ccc(Oc4ccccc4)cc3)c3c(N)ncnc32)C1` for me?
OUT: 76

IN: Can you look up the measured residual activity of COc1ccc2c(c1)c1c3c(c4c5ccccc5n(C)c4c1n2CC(O)CN(C)C)C(=O)NC3=O (stereo unspecified) for me?
OUT: 33

IN: Can you look up the measured residual activity of `CCOC(=O)c1ccc(N2NC(=O)/C(=C/c3ccc([N+](=O)[O-])o3)C2=O)cc1` for me?
OUT: 84

IN: Can you look up the measured residual activity of `c1ccc2c(-c3cnn4cc(-c5ccc(N6CCNCC6)cc5)cnc34)ccnc2c1` for me?
OUT: 11

IN: Can you look up the measured residual activity of `NC1(c2ccc(-c3nc4ccn5c(=O)[nH]nc5c4cc3-c3ccccc3)cc2)CCC1` for me?
OUT: 91

IN: Can you look up the measured residual activity of `Cc1cc(SCc2sc(-c3ccc(C(F)(F)F)cc3)nc2C)ccc1OCC(=O)O` for me?
OUT: 91

IN: Can you look up the measured residual activity of `CCNc1nc(Nc2cc(F)c(C(=O)N3CCOCC3)cc2OC)ncc1C(F)(F)F` for me?
OUT: 41

IN: Can you look up the measured residual activity of CC1=C(CO)C(=O)O[C@@H]([C@@H](C)[C@H]2CC[C@H]3[C@@H]4C[C@H]5O[C@]56[C@@H](O)C=CC(=O)[C@]6(C)C4CC[C@]23C)C1 (stereo partly specified) for me?
OUT: 118

IN: Can you look up the measured residual activity of `CNc1nc(-c2ccc3c(N)n[nH]c3c2)cc(N2C[C@@H](C(=O)NC3CCCCC3)CC[C@H]2C)n1` for me?
OUT: 87

Just for reference, the kinase profiling compilation of Christmann-Franck et al. (2016) is where these values come from.
